Parameter 'readout' = IC50; parameter 'system' = Cholinesterase (Homo sapiens, UniProt P06276).
Sequence (P06276 whole entry): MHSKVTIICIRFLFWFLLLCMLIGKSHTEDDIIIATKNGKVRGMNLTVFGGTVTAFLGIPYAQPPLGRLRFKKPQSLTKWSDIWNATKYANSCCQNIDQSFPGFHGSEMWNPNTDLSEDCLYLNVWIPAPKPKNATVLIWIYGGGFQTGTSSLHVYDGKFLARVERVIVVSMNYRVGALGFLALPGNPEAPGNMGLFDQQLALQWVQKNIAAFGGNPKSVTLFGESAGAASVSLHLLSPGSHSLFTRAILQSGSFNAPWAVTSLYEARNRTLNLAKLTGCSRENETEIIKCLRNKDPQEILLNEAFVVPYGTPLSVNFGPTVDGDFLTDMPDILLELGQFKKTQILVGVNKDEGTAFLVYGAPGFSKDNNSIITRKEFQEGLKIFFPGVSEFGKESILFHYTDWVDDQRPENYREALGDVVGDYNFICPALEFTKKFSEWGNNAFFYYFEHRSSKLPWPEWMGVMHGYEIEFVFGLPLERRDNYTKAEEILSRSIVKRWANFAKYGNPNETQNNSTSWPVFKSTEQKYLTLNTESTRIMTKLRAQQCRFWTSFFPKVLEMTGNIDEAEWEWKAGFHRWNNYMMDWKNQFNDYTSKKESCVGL

{"molecule": "O=C1NS(=O)(=O)c2ccccc21 [SACCHARIN]", "IC50 (µM)": 3.6}
{"molecule": "O=S(=O)(CCCN1CCC(c2ccccc2)CC1)NCCNc1cccc2ccccc12", "IC50 (µM)": 5.08}
{"molecule": "O=S(=O)(CCCN1CCN(Cc2ccccc2)CC1)NCCNc1cccc2ccccc12", "IC50 (µM)": 2}
{"molecule": "O=S(=O)(CCCNCCNc1cccc2ccccc12)NCCNc1cccc2ccccc12", "IC50 (µM)": 0.93}

* * *

Measured inhibition values are reported for all entries that follow.
- experimental_target: Amyloid-beta precursor protein (Homo sapiens)
- procedure_text: Inhibition of Amyloid beta (1 to 40) (unknown origin) fibril formation at Abeta:compound ratio of 1:10 after 4 days by Thioflavin-T fluorescence assay
- condition_parameters: concentration not given here

{"item_smiles": "O=S(=O)(CCCN1CCN(Cc2ccccc2)CC1)NCCNc1cccc2ccccc12", "unit_descriptor": "%", "inhibition": 43}
{"item_smiles": "O=S(=O)(CCCN1CCC(Cc2ccccc2)CC1)NCCNc1cccc2ccccc12", "unit_descriptor": "%", "inhibition": 60}
{"item_smiles": "O=S(=O)(CCCN1CCC(O)CC1)NCCNc1cccc2ccccc12", "unit_descriptor": "%", "inhibition": 64}
{"item_smiles": "O=S(=O)(CCCN1CCC(c2ccccc2)CC1)NCCNc1cccc2ccccc12", "unit_descriptor": "%", "inhibition": 87}

* * *

- experimental_target: Amyloid-beta precursor protein (Homo sapiens)
- procedure_text: Inhibition of Amyloid beta (1 to 42) (unknown origin) oligomer assembly at Abeta:compound ratio of 0.0002 after 30 mins by single-site ELISA assay
Measured inhibition values are reported for all entries that follow.

{"item_smiles": "Cc1ccccc1S(N)(=O)=O", "inhibition": "< 54%"}
{"item_smiles": "NS(=O)(=O)c1ccccc1Br", "inhibition": "< 54%"}
{"item_smiles": "O=C1NS(=O)(=O)c2ccccc21", "inhibition": "< 54%"}
{"item_smiles": "O=C(CCC(=O)NCCNc1cccc2ccccc12)NCCNc1cccc2ccccc12", "inhibition": "50%"}
{"item_smiles": "NS(=O)(=O)c1ccc([N+](=O)[O-])cc1", "inhibition": "< 54%"}
{"item_smiles": "O=C1c2ccccc2S(=O)(=O)N1CCCN1CCC(O)CC1", "inhibition": "< 54%"}
{"item_smiles": "CCN(CC)CCCN1C(=O)c2ccccc2S1(=O)=O", "inhibition": "< 54%"}
{"item_smiles": "O=C1c2ccccc2S(=O)(=O)N1CCCN(CCO)CCO", "inhibition": "< 54%"}
{"item_smiles": "CCN(CC)CCN1C(=O)c2ccccc2S1(=O)=O", "inhibition": "< 54%"}
{"item_smiles": "O=C1c2ccccc2S(=O)(=O)N1CCO", "inhibition": "< 54%"}
{"item_smiles": "COc1ccc(S(N)(=O)=O)cc1", "inhibition": "< 54%"}
{"item_smiles": "O=C(NCCCCNC(=O)c1ccc2ccccc2c1)c1ccc2ccccc2c1", "inhibition": "99%"}

* * *

- experimental_target: Cholinesterase (Homo sapiens, UniProt P06276)
- procedure_text: Inhibition of BuChE (unknown origin) assessed as reduction in S-butyrylthiocholine chloride hydrolysis at 10 uM after 15 mins by Ellman method

{"molecule": "CC(NCCCS(=O)(=O)NCCNc1cccc2ccccc12)c1ccccc1 (stereo not given)", "relation_qualifier": ">", "inhibition [%]": 40}
{"molecule": "O=S(=O)(CCCN1CCC(Cc2ccccc2)CC1)NCCNc1cccc2ccccc12", "relation_qualifier": ">", "inhibition [%]": 40}
{"molecule": "CC(C(O)c1ccccc1)N(C)CCCS(=O)(=O)NCCNc1cccc2ccccc12.Cl (stereo not given)", "relation_qualifier": ">", "inhibition [%]": 40}
{"molecule": "O=S(=O)(CCCN1CCN(Cc2ccccc2)CC1)NCCNc1cccc2ccccc12", "relation_qualifier": "=", "inhibition [%]": 90}
{"molecule": "O=S(=O)(CCCN1CCN(c2ccccn2)CC1)NCCNc1cccc2ccccc12", "relation_qualifier": ">", "inhibition [%]": 40}
{"molecule": "O=S(=O)(CCCN1CCN(c2ccccc2)CC1)NCCNc1cccc2ccccc12", "relation_qualifier": ">", "inhibition [%]": 40}
{"molecule": "O=S(=O)(CCCNCCc1c[nH]c2ccccc12)NCCNc1cccc2ccccc12", "relation_qualifier": ">", "inhibition [%]": 80}
{"molecule": "O=C1NS(=O)(=O)c2ccccc21", "relation_qualifier": "=", "inhibition [%]": 73}
{"molecule": "O=S(=O)(CCCNCCNc1cccc2ccccc12)NCCNc1cccc2ccccc12", "relation_qualifier": "=", "inhibition [%]": 99}
{"molecule": "O=S(=O)(CCCN1CCC(c2ccccc2)CC1)NCCNc1cccc2ccccc12", "relation_qualifier": "=", "inhibition [%]": 58}
